# target.or.system: Pro-neuregulin-1, membrane-bound isoform (Homo sapiens)
# assay.overview: NRG1 binders on small-molecule microarrays, primary screen, psychiatric disease protein project, biochemical, small-molecule microarray, fluorescence 635/667 (AID 1075);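 further: score combines 667 nm spot fluorescence with signal to noise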
# experimental.conditions: NRG1 binding, 635 nm fluorescence, higher = more signal

{"compound": "COC(=O)[C@@]1(Cc2ccc(OC)cc2)[C@H]2c3cc(C(=O)N(C)C)n(Cc4nc5ccccc5[nH]4)c3C[C@H]2CN1C(=O)c1ccccc1", "composite z-score": 1.82}
{"compound": "[N-]=[N+]=Nc1ccccc1[C@@H]1OC(c2ccc(OCCCO)cc2)=N[C@]1(CCS(=O)(=O)c1ccccc1)C(=O)NCCN1CCOCC1", "composite z-score": 0.806}
{"compound": "CC(C)c1ccc(NN2C(C(O)c3ccco3)C=CC3C(=O)N(c4ccccc4)C(=O)C32)cc1 (stereo not given)", "composite z-score": 1.46}
{"compound": "Cc1ccc(S[C@]2(C(=O)NCC(F)(F)F)CC(=O)N(Cc3ccccc3)[C@@H]2c2ccc(CO)cc2)cc1", "composite z-score": 0.248}
{"compound": "CCCN1C(=O)[C@]2(Cc3ccccc3)N=C(c3ccc(OCCCO)cc3)O[C@@H]2c2ccccc21", "composite z-score": 0.305}
{"compound": "C=CCNC(=O)[C@@H]1[C@H]2C(=O)O[C@H](c3ccccc3)[C@H](c3ccccc3)N2[C@H](c2ccc(OCCO)cc2)[C@@]12C(=O)N(C(=O)OCCOC)c1ccc(C#CC3=CCCCC3)cc12", "composite z-score": 1.33}
{"compound": "COc1ccc(CCNC(=O)[C@@]2(Sc3ccc(C)cc3)CC(=O)N(Cc3cc(C(F)(F)F)cc(C(F)(F)F)c3)[C@@H]2c2ccc(CO)cc2I)cc1", "composite z-score": 0.899}
{"compound": "O=C1OCC=C[C@H]2OC34C=CCN(Cn5nnc6ccccc65)C(=O)[C@H]3N(CCCCCCO)C(=O)[C@@H]4[C@@H]12 (stereo not given in full)", "composite z-score": 1.91}
{"compound": "C=C(CCCC)C(=O)CC[C@@H](OC(=O)c1ccccc1-c1ccccc1C(=O)O)c1cccc(OCCO)c1", "composite z-score": 0.143}
{"compound": "CCCNC(=O)[C@@]1(c2ccc([N+](=O)[O-])cc2)CC(=O)N(C2CCCCC2)[C@@H]1c1ccc(CO)cc1I", "composite z-score": 0.456}
{"compound": "COc1c(C)cc(-c2cc3c(c(-c4ccccc4)n2)[Si](C(C)C)(C(C)C)OC3)cc1C", "composite z-score": -0.112}
{"compound": "NCCCCCNC(=O)[C@@H]1C[C@@H]2C(=O)N[C@@H](CCCCN)C(=O)N2[C@@H]1c1cccc(OCCO)c1", "composite z-score": 2.11}
{"compound": "COc1ccc([Si](C)(C)[C@H]2[C@H](CCO)O[C@@]3(C(=O)N(Cc4cccc(N5CCCCC5=O)c4)c4ccccc43)[C@@H]2C)cc1", "composite z-score": 0.652}
{"compound": "COC(=O)C[C@H]1O[C@]2(C(=O)N(C)c3ccccc32)[C@@H](C)[C@@H]1[Si](C)(C)c1ccc(C)cc1", "composite z-score": 0.274}
{"compound": "O=C(N1CCCCC1)[C@@]1(Cc2ccccc2)COC(c2ccc(OCCCO)cc2)=N1", "composite z-score": 1.91}

* * *

Items are presented alongside their recorded composite z-score.
# assay.overview: small-molecule binders of probe aNOTCH3, primary screen, biochemical, small-molecule microarray, 635/667 nm fluorescence (AID 1120);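 further: probe is a biotin-tagged antibody raised against NOTCH3 rather than NOTCH3 protein; score merges spot fluorescence near 667 nm with spot signal to noise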
# experimental.conditions: higher = more signal
experimental.endpoint: composite z-score

{"compound": "CCCC[C@@H]1C[C@H]1[C@@H](NC(=O)c1ccccc1)c1ccc(Cl)cc1", "reported.value": -0.414}
{"compound": "[N-]=[N+]=Nc1ccccc1[C@@H]1OC(c2ccc(OCCCO)cc2)=N[C@]1(CCS(=O)(=O)c1ccccc1)C(=O)NCCN1CCOCC1", "reported.value": 0.178}
{"compound": "COCC(=C=CC[C@H](O)c1cccc(OCCO)c1)C[C@H](O)c1ccccn1", "reported.value": -0.004}
{"compound": "CCOC(=O)C1=CC[C@@H](c2ccccc2)N(S(=O)(=O)c2ccc(C)cc2)C1", "reported.value": 0.283}
{"compound": "CCOC(=O)C[C@H]1[C@H](OC(=O)Cc2ccc3c(c2)OCO3)[C@@H](NC(=O)Cc2ccc(OC)cc2)c2cc(OCCCO)ccc2N1C(=O)c1ccccc1", "reported.value": -0.141}
{"compound": "COCC(=C=CC[C@H](O)c1ccc(OCCO)cc1)C[C@H](O)COCc1ccccc1", "reported.value": -0.123}
{"compound": "CC(C)N1C(=O)[C@@]2(c3ccc([N+](=O)[O-])cc3)CC(=O)N(C3CCCCC3)[C@@H]2c2ccc(CO)cc21", "reported.value": -0.215}
{"compound": "CO[C@H]1O[C@H](CO)[C@@H](OC(=O)Nc2ccc(C(F)(F)F)cc2)[C@H](OC(=O)Nc2ccc3c(c2)OCO3)[C@H]1OC(=O)Nc1ccc2c(c1)OCO2", "reported.value": 0.169}
{"compound": "CN(C)C(=O)[C@]1(CCC(=O)OC(C)(C)C)N=C(c2ccc(OCCCO)cc2)O[C@@H]1c1ccccc1", "reported.value": 0.116}
{"compound": "CN(C)C(=O)[C@@]1(Cc2ccccc2N=[N+]=[N-])COC(c2ccc(OCCCO)cc2)=N1", "reported.value": 0.12}
{"compound": "CCOC(=O)C1=CC[C@@H](c2ccccc2C(F)(F)F)N(S(=O)(=O)c2ccc(C)cc2)C1", "reported.value": 0.694}
{"compound": "COCCCNC(=O)[C@@]1(Sc2ccc(C)cc2)CC(=O)N(Cc2cc(C(F)(F)F)cc(C(F)(F)F)c2)[C@@H]1c1ccc(CO)cc1", "reported.value": 0.0562}
{"compound": "CC(C)(C)OC(=O)CC[C@]1(C(=O)N2CCOCC2)N=C(c2ccc(OCCCO)cc2)O[C@H]1c1ccccc1", "reported.value": 0.116}
{"compound": "COc1ccc([Si](C)(C)[C@H]2[C@H](CCn3cc(CCO)nn3)O[C@@]3(C(=O)N(Cc4ccc(N5C(=O)c6cccc7cccc5c67)cc4)c4ccccc43)[C@@H]2C)cc1", "reported.value": 0.0996}
{"compound": "CCCCN1CC=CC23O[C@@H]4/C=C\\CCC(C)OC(=O)C4[C@H]2C(=O)N(CCCCCCO)[C@@H]3C1=O (stereo not given in full)", "reported.value": -0.307}

* * *

# target.or.system: Homeobox protein Hox-A13 (Mus musculus) (UniProt Q62424)
# Sequence (Q62424 whole entry, looked up): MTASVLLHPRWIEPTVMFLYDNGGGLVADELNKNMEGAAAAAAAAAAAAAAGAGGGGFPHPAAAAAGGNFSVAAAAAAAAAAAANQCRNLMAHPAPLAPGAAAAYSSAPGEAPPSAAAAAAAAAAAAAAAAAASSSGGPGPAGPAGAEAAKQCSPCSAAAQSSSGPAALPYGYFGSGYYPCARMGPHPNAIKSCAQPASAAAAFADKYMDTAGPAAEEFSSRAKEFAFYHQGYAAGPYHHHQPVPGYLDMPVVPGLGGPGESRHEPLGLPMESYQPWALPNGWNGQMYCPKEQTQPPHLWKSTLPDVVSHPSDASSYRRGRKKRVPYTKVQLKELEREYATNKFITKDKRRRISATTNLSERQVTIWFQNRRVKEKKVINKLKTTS
# assay.overview: inhibitors of HoxA13-DNA binding, primary screen, biochemical, fluorescence polarization, labeled oligonucleotide (AID 1185)
# experimental.conditions: 15 min, higher = more signal, called active from +8 up or from −8 down

{"molecule": "O=C1C2C=CC(C(O)c3cc(C(F)(F)F)cc(C(F)(F)F)c3)N(Nc3ccc([N+](=O)[O-])cc3)C2C(=O)N1c1ccccc1 (centres undefined)", "target.or.system": "Homeobox protein Hox-A13 (Mus musculus) (UniProt Q62424)", "z-score": -3.06}
{"molecule": "C=CC[C@]1(C(=O)N(C)C)N=C(c2ccc(OCCCO)cc2)O[C@H]1c1ccccc1N=[N+]=[N-]", "target.or.system": "Homeobox protein Hox-A13 (Mus musculus) (UniProt Q62424)", "z-score": -3.37}
{"molecule": "C=C[C@@H](COC(C)=O)NS(=O)(=O)c1ccc(Br)cc1", "target.or.system": "Homeobox protein Hox-A13 (Mus musculus) (UniProt Q62424)", "z-score": 0.34}
{"molecule": "O=C(NC1CC1)[C@@H]1c2ccccc2C(=O)N(Cc2ccccc2)[C@H]1c1ccc(CO)cc1", "target.or.system": "Homeobox protein Hox-A13 (Mus musculus) (UniProt Q62424)", "z-score": -2.86}

* * *

Measured composite z-score by item
# assay.overview: COS7 lysate on small-molecule microarray, probe aHis, 635 nm (AID 1123);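 further: z-score combines 667nm fluorescence intensity with signal-to-noise per printed compound spot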
# experimental.conditions: COS7 cell lysate, fluorescence, higher = more signal
experimental.endpoint: composite z-score

{"compound": "CCOC(=O)C[C@H]1[C@H](OC(=O)c2ccc(-c3ccccc3)cc2)[C@@H](NC(=O)C2CCCCC2)c2cc(OCCCO)ccc2N1C(=O)c1ccccc1", "experimental.endpoint": "composite z-score", "reported.value": 0.92}
{"compound": "CCOC(=O)[C@H]1C/C=C/C[C@H](C(=O)OCC)C(=O)O[C@H]2[C@@H](OC)O[C@H](CO)[C@@H](OC(=O)CCc3ccccc3)[C@@H]2OC1=O", "experimental.endpoint": "composite z-score", "reported.value": -0.188}
{"compound": "C=CCN1Cc2ccccc2C[C@@]2(N=C(c3ccc(OCCCO)cc3)O[C@H]2c2ccccc2)C1=O", "experimental.endpoint": "composite z-score", "reported.value": 3.06}
{"compound": "CCOC(=O)C[C@H]1[C@H](OC(=O)c2ccccc2-c2ccccc2)[C@@H](NC(=O)CC(C)C)c2cc(OCCCO)ccc2N1C(=O)c1ccc2ccccc2n1", "experimental.endpoint": "composite z-score", "reported.value": 0.578}
{"compound": "O=C(O)[C@H]1C[C@H]2C(=O)N3CCC[C@H]3C(=O)N2[C@H]1c1cccc(OCCO)c1", "experimental.endpoint": "composite z-score", "reported.value": 1.21}
{"compound": "CC1CC/C=C\\[C@H]2OC34C=CCN(C(C)C)C(=O)[C@H]3N(CCCCCO)C(=O)[C@@H]4C2C(=O)O1 (some centres not stated)", "experimental.endpoint": "composite z-score", "reported.value": -0.384}
{"compound": "CCOC(=CC(=O)OC)CC(O)c1cccc(Cl)c1 (configuration not stated)", "experimental.endpoint": "composite z-score", "reported.value": 1.47}
